- TARGET_OR_SYSTEM: T1, recombinant His-tagged human FRα (human, UniProt P15328 25-234)
- T1 construct: Bought protein; also called hFRα; FRα-HIS
- T1 sequence (P15328 25-234 limits assumed): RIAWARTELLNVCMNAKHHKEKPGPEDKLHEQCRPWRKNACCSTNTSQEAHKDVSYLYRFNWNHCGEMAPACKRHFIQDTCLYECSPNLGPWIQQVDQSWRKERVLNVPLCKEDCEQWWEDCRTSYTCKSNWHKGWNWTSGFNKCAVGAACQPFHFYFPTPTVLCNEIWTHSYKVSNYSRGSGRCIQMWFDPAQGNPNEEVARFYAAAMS
- TEST_DETAILS: BLI, supernatant, n=1
Field: pKd. Provide a value for each of the binders that follow.
Answers are plain numbers, as −log10 of the molar value.

The cases that follow already have their pKd on record.
* v23811 (antibody, human IgG1, kappa, V domains shown, also called humanized 8K22 H3L4) VH: EVQLVESGGGLVQPGGSLRLSCAASGFTISNNYYMCWVRQAPGKGLEWIACIYGGISGRTYYADSAKGRFTISKDSSKNTVYLQMNSLRAEDTAVYYCVRGYVGTSNLWGQGTLVTVSS VL: DIQMTQSPSSLSASVGDRVTITCQASQSIYSSLAWYQQKPGKAPKLLIYDASHLASGVPSRFSGSGSGTDFTLTISSVQPEDAATYYCQGGWYSSAATYVPNTFGGGTKVEVKR | 7.65
* v23805 (antibody, human IgG1, kappa, V domains shown, also called humanized 8K22 H2L3) VH: EVQLVESGGGLVQPGGSLRLSCAASGFTISNNYYMCWVRQAPGKGLEWIACIYGGISGRTYYADSAKGRFTISKDNSKNTVYLQMNSLRAEDTAVYYCVRGYVGTSNLWGQGTLVTVSS VL: DIQMTQSPSSLSASVGDRVTITCQASQSIYSSLAWYQQKPGKAPKLLIYDASHLASGVPSRFSGSRYGTDFTLTISSVQPEDFATYYCQGGWYSSAATYVPNTFGGGTKVEVKR | 7.79

Pending binder:
*Q* Dear colleague, I am looking for the recorded pKd of the following binder: v23813 (antibody, human IgG1, kappa, V domains shown, also called humanized 8K22 H5L4) VH: EVQLVESGGGLVQPGGSLRLSCAASGFTISNNYYMCWVRQAPGKGLEWIACIYGGISGRTYYADWAKGRFTISKDSSKNTVYLQMNSLRAEDTAVYYCVRGYVGTSNLWGQGTLVTVSS VL: DIQMTQSPSSLSASVGDRVTITCQASQSIYSSLAWYQQKPGKAPKLLIYDASHLASGVPSRFSGSGSGTDFTLTISSVQPEDAATYYCQGGWYSSAATYVPNTFGGGTKVEVKR
*A* 7.46
